All values here come from ChEMBL document CHEMBL4265967.

# protocol_text: in vitro
# condition_notes: human, liver microsomes
Assignment: determine reported remaining at 1 h, 1 µM for the given molecules.
Answer with a number only, understood to be in %.

Prompt: Tell me remaining at 1 h, 1 µM reported for C[C@]12CC[C@H]3[C@@H](CCC4=CC(=O)CC[C@@]43C)[C@@H]1CC[C@@H]2O [TESTOSTERONE]
Completion: 5.2

Prompt: State its remaining at 1 h, 1 µM for this molecule: CCC(CC)O[C@@H]1C=C(C(=O)N[C@@H](C(=O)O)C(C)(C)C)C[C@H](N)[C@H]1NC(C)=O
Completion: 84.1

###

# protocol_text: in vitro
# condition_notes: human, liver microsomes
assay_readout: half-life at 1 µM (min)
Form entry: value (min) — number only.

Prompt: Give the measured half-life at 1 µM for O=C(O)Cc1ccccc1Nc1c(Cl)cccc1Cl
Completion: 11.6

###

# protocol_text: in vitro
# condition_notes: human, liver microsomes
assay_readout: CLint scaled at 1 µM (mL/min/kg)
Write it as a number; the unit mL/min/kg goes unstated.

Prompt: Return the recorded CLint scaled at 1 µM value; entry: O=C(O)Cc1ccccc1Nc1c(Cl)cccc1Cl
Completion: 108

###

# protocol_text: in vitro
# condition_notes: human, liver microsomes
assay_readout: remaining at 10 min, 1 µM (%)
Report as a plain number; the unit % is understood.

Prompt: Supply recorded remaining at 10 min, 1 µM for C[C@]12CC[C@H]3[C@@H](CCC4=CC(=O)CC[C@@]43C)[C@@H]1CC[C@@H]2O here.
Completion: 58.9

Prompt: Give a short answer stating reported remaining at 10 min, 1 µM for CCC(CC)O[C@@H]1C=C(C(=O)N[C@@H](C(=O)O)C(C)(C)C)C[C@H](N)[C@H]1NC(C)=O .
Completion: 87.3

###

# protocol_text: in vitro
# condition_notes: human, liver microsomes
assay_readout: remaining at 0.5 h, 1 µM (%)
Lab book: enter the figure in %, no units written.

Prompt: Item CCC(CC)O[C@@H]1C=C(C(=O)N[C@@H](C(=O)O)C(C)(C)C)C[C@H](N)[C@H]1NC(C)=O : provide remaining at 0.5 h, 1 µM
Completion: 95.5

Prompt: Tell me measured remaining at 0.5 h, 1 µM for C[C@]12CC[C@H]3[C@@H](CCC4=CC(=O)CC[C@@]43C)[C@@H]1CC[C@@H]2O please.
Completion: 21.5

###

# protocol_text: Octanol-phosphate buffered saline partition coefficient, log D of compound at pH 7 at 1 mg after 24 hrs by HPLC analysis
# Type: physicochemical
assay_readout: logD at 24 h
Answer using only a numeral; do not append any unit.

Prompt: Dear colleague, please send me the reported logD at 24 h for CCC(CC)O[C@@H]1C=C(C(=O)N[C@@H](C(=O)O)C(C)(C)C)C[C@H](N)[C@H]1NC(C)=O when you can.
Completion: -0.167

###

# protocol_text: in vitro
# condition_notes: human, liver microsomes
assay_readout: remaining at 5 min, 1 µM (%)
Give a bare numeral; the unit % is implied.

Prompt: Give the reported remaining at 5 min, 1 µM for this molecule. C[C@]12CC[C@H]3[C@@H](CCC4=CC(=O)CC[C@@]43C)[C@@H]1CC[C@@H]2O
Completion: 64.8

Prompt: Return reported remaining at 5 min, 1 µM. Input molecule: CCC(CC)O[C@@H]1C=C(C(=O)N[C@@H](C(=O)O)C(C)(C)C)C[C@H](N)[C@H]1NC(C)=O
Completion: 111

###

# protocol_text: Octanol-phosphate buffered saline partition coefficient, log D of compound at pH 6.8 at 1 mg after 24 hrs by HPLC analysis
# Type: physicochemical
assay_readout: logD at 24 h

Prompt: Note logD at 24 h for the compound shown: CCC(CC)O[C@@H]1C=C(C(=O)N[C@@H](C(=O)O)C(C)(C)C)C[C@H](N)[C@H]1NC(C)=O
Completion: -0.0458

###

# target_or_test_system: Neuraminidase (Influenza A virus) (UniProt B4URF0)
# Sequence (B4URF0 as listed by the source): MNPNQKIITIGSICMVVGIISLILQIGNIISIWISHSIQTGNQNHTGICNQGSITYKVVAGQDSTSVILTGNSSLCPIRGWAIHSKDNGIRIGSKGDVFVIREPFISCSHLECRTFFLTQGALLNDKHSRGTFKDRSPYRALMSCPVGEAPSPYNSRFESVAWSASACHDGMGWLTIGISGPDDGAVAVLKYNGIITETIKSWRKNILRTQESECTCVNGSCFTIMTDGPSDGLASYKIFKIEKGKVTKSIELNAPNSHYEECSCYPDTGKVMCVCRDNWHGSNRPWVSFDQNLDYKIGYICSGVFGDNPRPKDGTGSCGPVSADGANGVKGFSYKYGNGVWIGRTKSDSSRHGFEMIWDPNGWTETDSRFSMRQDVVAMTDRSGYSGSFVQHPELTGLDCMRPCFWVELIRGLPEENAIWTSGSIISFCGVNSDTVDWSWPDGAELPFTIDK
# condition_notes: A/Anhui/2005(H5N1), at 1 µM
Lab note: compare inhibition against 20%. Equal or greater, write class 1. Smaller, write class 0.

Prompt: State whether the measured inhibition reaches 20%, counting equality as reaching it, for CCC(CC)O[C@@H]1C=C(C(=O)N[C@H](C)C(=O)O)C[C@H](N)[C@H]1NC(C)=O
Completion: class 1

Prompt: Decide: is the reported value of inhibition for CCC(CC)O[C@@H]1C=C(C(=O)NC2CC2)C[C@H](N)[C@H]1NC(C)=O equal to or greater than 20%?
Completion: class 0

Prompt: Please tell me: is the molecule CCC(CC)O[C@@H]1C=C(C(=O)NCCCc2ccccc2)C[C@H](N)[C@H]1NC(C)=O at or over 20% in terms of inhibition?
Completion: class 0

Prompt: Reported inhibition reaches at least 20% for CCC(CC)O[C@@H]1C=C(C(=O)NCCCCc2ccccc2)C[C@H](N)[C@H]1NC(C)=O ?
Completion: class 1

Prompt: Check if inhibition >= 20% (inclusive). Item: CCC(CC)O[C@@H]1C=C(C(=O)N[C@H](CC(C)C)C(=O)O)C[C@H](N)[C@H]1NC(C)=O
Completion: class 1

Prompt: Has CCC(CC)O[C@@H]1C=C(C(=O)N[C@H](Cc2ccccc2)C(=O)OC)C[C@H](N)[C@H]1NC(C)=O a recorded inhibition greater than or equal to 20%?
Completion: class 1

Prompt: Given the entry CCC(CC)O[C@@H]1C=C(C(=O)N[C@@H](C(=O)O)C(C)(C)C)C[C@H](N)[C@H]1NC(C)=O , answer whether its inhibition meets or surpasses 20%.
Completion: class 1

###

Kindly state inhibition for each of the entries shown.
# target_or_test_system: Neuraminidase (Influenza A virus) (UniProt B4URF0)
# condition_notes: A/Anhui/2005(H5N1), at 10 µM
Dear colleague, please return just the value in %, with no unit written.

Prompt: For the compound CCC(CC)O[C@@H]1C=C(C(=O)N[C@H](C)C(=O)O)C[C@H](N)[C@H]1NC(C)=O , give its reported inhibition.
Completion: 81.1

Prompt: Give reported inhibition value for CCC(CC)O[C@@H]1C=C(C(=O)N[C@@H](C(=O)O)C2CC2)C[C@H](N)[C@H]1NC(C)=O
Completion: 85.7

Prompt: Entry CCC(CC)O[C@@H]1C=C(C(=O)N[C@H](CC(C)C)C(=O)O)C[C@H](N)[C@H]1NC(C)=O needs its inhibition filled in; supply it.
Completion: 84.4

Prompt: State, in one line, measured inhibition of CCC(CC)O[C@@H]1C=C(C(=O)N[C@H](Cc2ccccc2)C(=O)OC)C[C@H](N)[C@H]1NC(C)=O
Completion: 63.2

Prompt: Answer with the recorded inhibition of CCC(CC)O[C@@H]1C=C(C(=O)NCCCCc2ccccc2)C[C@H](N)[C@H]1NC(C)=O only.
Completion: 29.6

Prompt: # return recorded inhibition for entry CCCC[C@@H](NC(=O)C1=C[C@@H](OC(CC)CC)[C@H](NC(C)=O)[C@@H](N)C1)C(=O)O
Completion: 85.5

Prompt: Identify measured inhibition corresponding to CCC(CC)O[C@@H]1C=C(C(=O)N[C@@H](C(=O)O)c2ccccc2)C[C@H](N)[C@H]1NC(C)=O
Completion: 8.3

Prompt: State its inhibition for this compound: CCC(CC)O[C@@H]1C=C(C(=O)N[C@@H](C(=O)O)C(C)(C)C)C[C@H](N)[C@H]1NC(C)=O
Completion: 91
